target: glyoxalase I (GLO1) (Homo sapiens, UniProt Q04760)
Sequence (Q04760 2-184 limits assumed): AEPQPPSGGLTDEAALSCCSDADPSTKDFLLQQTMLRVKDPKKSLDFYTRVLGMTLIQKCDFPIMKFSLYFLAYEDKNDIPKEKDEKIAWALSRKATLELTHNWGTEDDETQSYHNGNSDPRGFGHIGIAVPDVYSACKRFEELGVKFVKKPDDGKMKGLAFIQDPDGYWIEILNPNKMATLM
pIC50: −log10 of the molar value.
Result type: pIC50

>>> df
                           molecular_string  value
0  O=C(NCCc1nccs1)c1cnc2c(SSc3cccc4cc(C(=O)NCCc5nccs5)cnc34)cccc2c1   4.37
